Data origin, for the record: patent US20260078099A1

- test.details: LNP size and PDI by dynamic light scattering
- Type: physicochemical
- condition.description: mRNA LNP, cationic lipid/DSPC/cholesterol/PEG-lipid 50:10:38.5:1.5
measurement.kind: PDI

As a guide, the following entries are already answered.
>>> recorded_measurement("CCCCCCCC(C(=O)NCCCCCCCCCC(=O)OC(CCCCCC)CCCCCC)N(CCCN(CCO)C1CCCCC1)C(=O)CCCCCCCCCC(=O)OC(CCCCCC)CCCCCC (stereo not drawn)")
0.13
>>> recorded_measurement("CCCCCCCCNC(=O)C(CCCCCC)N(CCCN(C)C)C(=O)CCCCCCC(=O)OC(CCCCCCCC)CCCCCCCC (stereo not drawn)")
0.09
>>> recorded_measurement("CCCCCCC(CCCCCC)OC(=O)CCCCCCCCCNC(=O)C(CCCCCCCCCC(=O)OC(CCCCCC)CCCCCC)N(CCCN(CCO)CCO)C(=O)CCCN(C)C (stereo not drawn)")
0.166
>>> recorded_measurement("CCCCCCCC(C(=O)NCCCCCCCCCC(=O)OC(CCCCCC)CCCCCC)N(CCN(CCO)C1CCC1)C(=O)CCCCCCCCCC(=O)OC(CCCCCC)CCCCCC (stereo not drawn)")
0.205
>>> recorded_measurement("CCCCCCCC(C(=O)NCCCCCCCCCC(=O)OC(CCCCCC)CCCCCC)N(CCCN(C)C)C(=O)CCCCCCCCCC(=O)OCC1CC=CCC1 (stereo not drawn)")
0.093

P = CCCCCCCC(C(=O)NCCCCCCCCCC(=O)OC(CCCCCC)CCCCCC)N(CCCN1CCCC1)C(=O)CCCCCCCCCC(=O)OCC1CC=CCC1 (stereo not drawn)
Q = CCCCCCCCNC(=O)C(CCCCCCCC)N(CCN(C)CCO)C(=O)CCCCCCC(=O)OC(CCCCCCCC)CCCCCCCC (stereo not drawn)
Input: Which numeric PDI is bigger, that of P or that of Q ? Kindly give the label for the entry you pick.
Output: P
(P: 0.191, Q: 0.10)
